Value source: the supplement of paper PMC9112550

system: Escherichia coli TOP10; assay: shrunken log2 fold change of peptide-encoding DNA abundance (4.5 h post-induction vs induction); higher = less antimicrobial activity (less host growth inhibition); settings: time post-induction: 4.5 h; library: site-saturation at positions 5, 18, 19, 20;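 also: peptides expressed intracellularly from a pBAD plasmid library in pooled LB shake-flask culture, induced with 0.3% L-arabinose, DNA abundance read by NGS, three biological replicates, DESeq2 with apeglm shrinkage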
We use -0.03 as the dividing line for shrunken log2 fold change: on or above the line is satisfied, below is not satisfied.

Is shrunken log2 fold change for RRIRKRPPRLPRPRPRPWWCPRP at or above -0.03? satisfied

Is shrunken log2 fold change for RRIRHRPPRLPRPRPRPFTIPRP at or above -0.03? not satisfied

Is shrunken log2 fold change for RRIRMRPPRLPRPRPRPRQYPRP at or above -0.03? not satisfied

Is shrunken log2 fold change for RRIRNRPPRLPRPRPRPALVPRP at or above -0.03? satisfied

Is shrunken log2 fold change for RRIRLRPPRLPRPRPRPRLYPRP at or above -0.03? not satisfied

Is shrunken log2 fold change for RRIRVRPPRLPRPRPRPALMPRP at or above -0.03? satisfied

Is shrunken log2 fold change for RRIRLRPPRLPRPRPRPRMIPRP at or above -0.03? satisfied

Is shrunken log2 fold change for RRIRYRPPRLPRPRPRPDIAPRP at or above -0.03? satisfied

Is shrunken log2 fold change for RRIRMRPPRLPRPRPRPWQAPRP at or above -0.03? satisfied

Is shrunken log2 fold change for RRIRSRPPRLPRPRPRPMQQPRP at or above -0.03? satisfied

Is shrunken log2 fold change for RRIRERPPRLPRPRPRPFRVPRP at or above -0.03? not satisfied

Is shrunken log2 fold change for RRIRGRPPRLPRPRPRPNENPRP at or above -0.03? satisfied

Is shrunken log2 fold change for RRIRWRPPRLPRPRPRPTIMPRP at or above -0.03? not satisfied

Is shrunken log2 fold change for RRIRRRPPRLPRPRPRPFWSPRP at or above -0.03? satisfied

Is shrunken log2 fold change for RRIRQRPPRLPRPRPRPAVYPRP at or above -0.03? not satisfied

Is shrunken log2 fold change for RRIRERPPRLPRPRPRPQLAPRP at or above -0.03? satisfied

Is shrunken log2 fold change for RRIRTRPPRLPRPRPRPGIFPRP at or above -0.03? not satisfied

Is shrunken log2 fold change for RRIRERPPRLPRPRPRPNTIPRP at or above -0.03? not satisfied

Is shrunken log2 fold change for RRIRRRPPRLPRPRPRPFAQPRP at or above -0.03? satisfied

Is shrunken log2 fold change for RRIRGRPPRLPRPRPRPRTIPRP at or above -0.03? satisfied

Is shrunken log2 fold change for RRIRCRPPRLPRPRPRPIKEPRP at or above -0.03? not satisfied

Is shrunken log2 fold change for RRIRARPPRLPRPRPRPIGAPRP at or above -0.03? satisfied

Is shrunken log2 fold change for RRIRNRPPRLPRPRPRPYFFPRP at or above -0.03? not satisfied

Is shrunken log2 fold change for RRIRNRPPRLPRPRPRPPAPPRP at or above -0.03? satisfied

Is shrunken log2 fold change for RRIRGRPPRLPRPRPRPISGPRP at or above -0.03? satisfied

Is shrunken log2 fold change for RRIRSRPPRLPRPRPRPIKQPRP at or above -0.03? not satisfied

Is shrunken log2 fold change for RRIRCRPPRLPRPRPRPESIPRP at or above -0.03? not satisfied

Is shrunken log2 fold change for RRIRCRPPRLPRPRPRPSRTPRP at or above -0.03? satisfied

Is shrunken log2 fold change for RRIRNRPPRLPRPRPRPRRCPRP at or above -0.03? satisfied

Is shrunken log2 fold change for RRIRLRPPRLPRPRPRPPGTPRP at or above -0.03? satisfied

Is shrunken log2 fold change for RRIRARPPRLPRPRPRPKYTPRP at or above -0.03? satisfied

Is shrunken log2 fold change for RRIRRRPPRLPRPRPRPDTRPRP at or above -0.03? not satisfied
